The values you see were collected from patent US4705796A.

- Study System: rat brain MAO B (Rattus norvegicus, UniProt P19643)
- Sequence (P19643 1-520): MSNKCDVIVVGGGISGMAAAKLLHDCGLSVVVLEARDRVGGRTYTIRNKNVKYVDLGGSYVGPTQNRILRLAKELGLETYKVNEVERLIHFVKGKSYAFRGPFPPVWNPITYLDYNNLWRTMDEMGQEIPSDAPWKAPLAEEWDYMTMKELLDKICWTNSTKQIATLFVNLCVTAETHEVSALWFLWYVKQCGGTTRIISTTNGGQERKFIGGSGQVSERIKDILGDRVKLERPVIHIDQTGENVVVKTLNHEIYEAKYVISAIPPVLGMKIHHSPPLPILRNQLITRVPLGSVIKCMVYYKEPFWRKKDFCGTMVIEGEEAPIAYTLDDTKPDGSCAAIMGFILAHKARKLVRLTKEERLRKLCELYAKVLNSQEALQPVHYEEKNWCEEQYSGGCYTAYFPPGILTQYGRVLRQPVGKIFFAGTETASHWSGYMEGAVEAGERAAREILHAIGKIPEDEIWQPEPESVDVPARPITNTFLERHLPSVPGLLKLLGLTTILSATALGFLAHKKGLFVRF
pIC50: −log10 of the molar value.

# Compound, Study System, pIC50
data = [
    ("O=C1CCC(NC(=O)Cc2ccccc2)C(=O)N1 (stereo not shown) [PAPD]", "rat brain MAO B (Rattus norvegicus, UniProt P19643)", 5.10),
]

----------
- Study System: human brain MAO A (Homo sapiens, UniProt P21397)
- Sequence (P21397 1-527): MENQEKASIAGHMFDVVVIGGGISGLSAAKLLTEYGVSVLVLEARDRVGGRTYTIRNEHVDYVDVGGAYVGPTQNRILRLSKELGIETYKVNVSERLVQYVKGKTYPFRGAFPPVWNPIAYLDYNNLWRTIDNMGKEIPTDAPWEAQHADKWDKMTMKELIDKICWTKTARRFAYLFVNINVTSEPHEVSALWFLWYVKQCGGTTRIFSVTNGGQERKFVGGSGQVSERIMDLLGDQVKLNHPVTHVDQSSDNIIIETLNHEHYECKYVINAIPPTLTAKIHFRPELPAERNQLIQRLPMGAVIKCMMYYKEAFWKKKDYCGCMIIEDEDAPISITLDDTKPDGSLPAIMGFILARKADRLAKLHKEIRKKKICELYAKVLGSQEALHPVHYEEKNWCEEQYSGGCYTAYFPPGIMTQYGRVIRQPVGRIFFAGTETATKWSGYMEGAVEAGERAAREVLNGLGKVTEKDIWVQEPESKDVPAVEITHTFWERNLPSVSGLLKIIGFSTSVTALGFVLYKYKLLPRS
pIC50: −log10 of the molar value.

# Compound, pIC50
data = [
    ("O=C1CCC(NC(=O)Cc2ccccc2)C(=O)N1 (stereo not shown)", 3.86),
]

----------
- Study System: rat brain MAO A (Rattus norvegicus)
- Sequence (P21396 1-526): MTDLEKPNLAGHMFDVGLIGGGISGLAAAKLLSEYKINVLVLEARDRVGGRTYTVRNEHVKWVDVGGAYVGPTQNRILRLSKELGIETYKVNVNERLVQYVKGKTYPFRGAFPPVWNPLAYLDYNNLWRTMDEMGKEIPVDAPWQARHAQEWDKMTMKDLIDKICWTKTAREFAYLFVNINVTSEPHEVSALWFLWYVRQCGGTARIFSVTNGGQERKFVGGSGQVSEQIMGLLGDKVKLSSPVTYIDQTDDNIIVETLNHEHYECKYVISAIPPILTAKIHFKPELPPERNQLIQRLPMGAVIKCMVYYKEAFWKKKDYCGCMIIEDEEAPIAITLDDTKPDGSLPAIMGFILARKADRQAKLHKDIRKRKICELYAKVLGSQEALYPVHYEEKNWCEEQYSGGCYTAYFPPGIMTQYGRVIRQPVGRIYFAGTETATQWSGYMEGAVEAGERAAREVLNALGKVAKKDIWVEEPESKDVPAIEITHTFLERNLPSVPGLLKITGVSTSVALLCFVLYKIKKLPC
Property: IC50 (µM)

# Compound, Property, Test Result
rows = [
    ("O=C1CCC(NC(=O)Cc2ccccc2)C(=O)N1 (stereo not shown) [PAPD]", "IC50", 93.3),
]
